- system: T1, recombinant Fc-TrkB antigen (human) (human, UniProt Q16620 32-430, limits assumed)
- T1 construct: Biotinylated for the ForteBio assays; also called Fc-hTrkB; human Fc-TrkB; not shown: Fc part
- methodSummary: BLI (ForteBio Octet), biotinylated Fc-TrkB on streptavidin sensors, Fab at 1E-7 M
metricName: koff

Solved entries (count: 2):
Fab TR134-4 (Fab, V domains shown, Fab with human V-segments, expressed in E. coli) VH: QVQLVQSGAEVKKPGASVKVSCKASGYTFTAYDMHWVRQAPGQGLEWMGWIDPNSGGTRYAQKFQGRVTMTRDTSISTAYMELSRLTSDDTAVYYCTGVTTWFAYWGQGTLVTVSS VL: MDVVMTQSPLSLPVTLGQPASISCRSSQSLLHSNGNTYLNWYQQTPGQPPRLLIYKISNRFSGVPDRFSGSGAGTDFTLKISRVEAEDVGVYYCMQGTHEPYTFGQGKLEIK: 0.00422 s⁻¹
Fab TR135-8 (Fab, V domains shown, Fab with human V-segments, expressed in E. coli; detected with anti-human kappa) VH: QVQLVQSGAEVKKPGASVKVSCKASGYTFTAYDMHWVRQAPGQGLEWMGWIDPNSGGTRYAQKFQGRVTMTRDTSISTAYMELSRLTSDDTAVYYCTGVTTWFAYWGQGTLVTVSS VL: MDVVMTQSPLSLPVTLGQPASISCRSSQSLVHSNGNTYLNWYQQKPGQPPRLLIYKISNRFSGVPDRFSGSGAGTDFTLKISRVEAEDVGVYYCMQGTHEPYTFGQGKLEIK: 0.00458 s⁻¹

Here's the next entry for you.
Recorded koff for Fab TR139-2 (Fab, V domains shown, Fab with human V-segments, expressed in E. coli) VH: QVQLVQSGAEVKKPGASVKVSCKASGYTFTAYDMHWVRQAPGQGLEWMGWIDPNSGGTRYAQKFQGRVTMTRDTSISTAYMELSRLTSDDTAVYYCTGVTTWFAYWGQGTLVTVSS VL: MDVVMTQSPLSLPVTLGQPASISCRSSQSLVHSNGNTYLSWLQQRPGQPPRLLIYKISNRFSGVPDRFSGSGAGTDFTLKISRVEAEDVGVYYCMQGTHEPYTFGQGKLEIK , please?
0.00334 s⁻¹
